# TARGET: T1, human α-CGRP 1-37 (WT) (human, C-terminal amide; N-terminal biotin when captured on the SA chip; 125I-labelled in the radioligand assay)
# T1 construct: also called α-human
# T1 peptide: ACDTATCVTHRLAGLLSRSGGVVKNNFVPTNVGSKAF
# PROTOCOL SUMMARY: Biacore, 37°C, Fab over CGRP on SA chip
We begin with a simple list: items and their reported koff.
Report the value in s⁻¹ with no unit label.

Find the recorded koff belonging to G1 variant M66 Fab (Fab, V domains shown, Fab; constant domains as m1; printed L561 read as L56I) VH: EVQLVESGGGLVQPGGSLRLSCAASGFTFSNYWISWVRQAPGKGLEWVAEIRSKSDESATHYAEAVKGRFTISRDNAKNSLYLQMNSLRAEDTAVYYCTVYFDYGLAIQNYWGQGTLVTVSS VL: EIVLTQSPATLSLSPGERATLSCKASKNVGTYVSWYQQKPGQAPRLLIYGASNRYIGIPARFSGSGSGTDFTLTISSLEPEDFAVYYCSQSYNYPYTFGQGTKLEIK and report it.
0.00052

Find the recorded koff belonging to G1 variant M43 Fab (Fab, V domains shown, Fab; constant domains as m1) VH: EVQLVESGGGLVQPGGSLRLSCAASGFTFSNYWISWVRQAPGKGLEWVAEIRSKSDNCATHYAEAVKGRFTISRDNAKNSLYLQMNSLRAEDTAVYYCTVYFDYGLAIQNYWGQGTLVTVSS VL: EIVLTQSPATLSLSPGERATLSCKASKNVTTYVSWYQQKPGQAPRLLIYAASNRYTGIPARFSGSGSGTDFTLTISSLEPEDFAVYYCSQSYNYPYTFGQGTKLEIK and report it.
0.000263

Find the recorded koff belonging to G1 variant M24 Fab (Fab, V domains shown, Fab; constant domains as m1) VH: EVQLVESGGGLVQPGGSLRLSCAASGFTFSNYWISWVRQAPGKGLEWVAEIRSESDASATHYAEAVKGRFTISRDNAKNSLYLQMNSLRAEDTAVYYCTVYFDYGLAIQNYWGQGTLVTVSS VL: EIVLTQSPATLSLSPGERATLSCKASKLVTTYVSWYQQKPGQAPRLLIYGASNRYLGIPARFSGSGSGTDFTLTISSLEPEDFAVYYCSQSYNYPYTFGQGTKLEIK and report it.
0.000148

Find the recorded koff belonging to G1 variant M22 Fab (Fab, V domains shown, Fab; constant domains as m1) VH: EVQLVESGGGLVQPGGSLRLSCAASGFTFSNYWISWVRQAPGKGLEWVAEIRSESDASATHYAEAVKGRFTISRDNAKNSLYLQMNSLRAEDTAVYYCTAYFDYGLAIQNYWGQGTLVTVSS VL: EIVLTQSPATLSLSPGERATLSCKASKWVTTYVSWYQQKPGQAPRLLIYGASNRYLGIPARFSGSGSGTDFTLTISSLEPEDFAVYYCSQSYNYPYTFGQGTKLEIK and report it.
0.000116

Origin of values: patent US20190071490A1
